- System: OVCAR-8
- test_description: NCI tumour cell line growth inhibition, 48 h
The source made the active and inactive calls. Rule as the data show it: active = GI50 up to about 1.1 µM and inactive = higher.
Each item that follows carries a reported GI50.
parameter: GI50

CCN(CC)c1ccc(C2Nc3ccc4ccccc4c3C3=C2C(=O)CCC3)cc1 (stereo unspecified)    14.7 µM (inactive)
Cc1[nH]nc(-c2ccon2)c1N=O    17 µM (inactive)
O=C(CCC=C(S(=O)(=O)c1ccccc1)S(=O)(=O)c1ccccc1)c1ccccc1    4.58 µM (inactive)
O=C(O)CSc1nnc(-c2ccccc2)[nH]1    > 100 µM (inactive)
Nn1c(Cc2ccccc2)n[nH]c1=O    > 100 µM (inactive)
COC(=O)[C@]1(c2cc3ccccc3n2S(=O)(=O)c2ccccc2)CC2CCC1NC2 (stereo partly specified)    14.9 µM (inactive)
Cc1cc(C)nc(NC(=S)Nc2ccccc2Cl)c1    > 100 µM (inactive)
Cc1cc2c(cc1-c1cc3c(cc1C)C(C(C)C)=C(O)C(=O)/C3=C\Nc1c3ccccc3nc3ccccc13)/C(=C/Nc1c3ccccc3nc3ccccc13)C(=O)C(O)=C2C(C)C    2.3 µM (inactive)
Cc1cc(C)c(N[S+]([O-])c2cccc(Cl)c2)c(C)c1 (stereo unspecified)    > 100 µM (inactive)
O=CC1C(Cl)=Nc2nc3ccccc3n2C1c1ccc([N+](=O)[O-])cc1 (stereo unspecified)    3.95 µM (inactive)
Cc1cccc(C)c1NC(=O)CCCC(=O)C1/C(=N/NC(=O)CC#N)CCC/C1=N\NC(=O)CC#N (stereo unspecified)    > 100 µM (inactive)
Cn1c2c(c3ccccc31)CCN(CCCCN1CCN(c3cccc(Cl)c3)CC1)C2=O    17.8 µM (inactive)
O=C(OC1=CCN(Br)C1=O)C1=C(O)C(=O)N(Br)C1    31.3 µM (inactive)
COc1ccc2nc3cc([N+](=O)[O-])ccc3c(NNc3ccccc3)c2c1    39.3 µM (inactive)
COc1cc2c3c(cc(Cl)nc3c1OC)C(O)(CC(C)=O)C(=O)N2 (stereo unspecified)    18.5 µM (inactive)
C/C=C(/C)C(=O)O[C@H]1C(C)=C[C@]23C(=O)[C@@H](C=C(COC(C)=O)[C@@H](O)[C@]12O)[C@H]1[C@@H](C[C@H]3C)[C@@]1(C)OC(=O)/C(C)=C\C    3.72 µM (inactive)
CSc1nc(-c2ccccc2)nc(C(C#N)C#N)n1    > 100 µM (inactive)
COc1cc2oc(-c3ccc(O)cc3)cc(=O)c2c(O)c1C1OC(CO)C(O)C(O)C1O (stereo unspecified)    > 100 µM (inactive)
CSC(=S)NN=C1CCCC1.CSC(=S)NN=C1CCCC1.[Zn+2]    14.4 µM (inactive)
Cc1nc2c(o1)C(=O)c1ccccc1/C2=N/c1ccc(N2CCOCC2)cc1    2.81 µM (inactive)
C=CC(=O)NC(=N)NC#N    214 µM (inactive)
CC(C)c1ccc(/C=C(\NC(=O)c2ccccc2)c2nc3ccccc3[nH]2)cc1    32.4 µM (inactive)
CN(C)CCn1c2ccccc2c2nc3cc4ccccc4cc3nc21    5.9 µM (inactive)
CCc1cccc(CC)c1NC(=O)CC1SC(N)=NC1=O (stereo unspecified)    > 100 µM (inactive)
CC1=NN(c2cccc(S(=O)(=O)O)c2)C2(C1)C(Cl)C(=O)N2c1nc2ccccc2s1 (stereo unspecified)    5.65 µM (inactive)
CN(C)Cc1cc(C(=O)/C=C/c2cccc(Cl)c2)cc(CN(C)C)c1O    8.55 µM (inactive)
O=S(=O)(c1ccccc1)N1CN2CN(C1)CN(S(=O)(=O)c1ccccc1)C2    > 100 µM (inactive)
O=C(CCl)N1CCN(c2ccccc2)CC1    32.1 µM (inactive)
CCOC(=O)c1ccc(-c2cccs2)[nH]1    > 55.5 µM (inactive)
Cl.O=C(O)c1cccnc1    > 100 µM (inactive)
CCCCCCCC/C=C\CCCCCCC/C=C1/C[C@](/C=C/C(=O)OC)(CO)OC1=O    6.65 µM (inactive)
C/C(=N/O)c1sc(-c2nc(C)c(/C(C)=N\O)s2)nc1C    > 100 µM (inactive)
C[N+](C)(C)CC(=O)N/N=C(\Cc1nc2ccc([N+](=O)[O-])cc2nc1O)C(=O)Nc1nc2ccc([N+](=O)[O-])cc2s1    74.3 µM (inactive)
CC(C)=C1CCC(CN(C)C)C1=O (stereo unspecified)    22.3 µM (inactive)
CCOC(=O)Nn1c(C)cc(C(=O)OC)c1C    > 100 µM (inactive)
Cc1cc2nnc(C(N)=O)c(N)c2cc1C    47.8 µM (inactive)
CC(C)(C)C1(O)Cc2ccccc2C(=O)O1 (stereo unspecified)    > 100 µM (inactive)
O=S(=O)(O)c1ccc(-c2c3nc(c(-c4ccc(S(=O)(=O)O)cc4)c4ccc([nH]4)c(-c4ccc(S(=O)(=O)O)cc4)c4nc(c(-c5ccc(S(=O)(=O)O)cc5)c5ccc2[nH]5)C=C4)C=C3)cc1    > 100 µM (inactive)
COc1cc(C2C(Cl)C(=O)N2NC(=O)Cc2ccccc2)cc(Br)c1O (stereo unspecified)    > 100 µM (inactive)
C/C=C/C=N/N(C(=O)c1cc([N+](=O)[O-])cc([N+](=O)[O-])c1)C1=NN=C(c2ccccc2)C(c2ccccc2)N1 (stereo unspecified)    89.9 µM (inactive)
CC(C)(C)c1cc(C(=O)/C=C/c2ccc(C(=O)O)cc2)cc(C(C)(C)C)c1    2.44 µM (inactive)
